Entry source: paper PMC6983048

# Test system: poly(dA-dT)2
# Assay remarks: Ethidium displacement assay, DNA-binding constants
# Condition info: apparent association constant
Endpoint name: Kapp Poly (dA-dT)2 (M⁻¹)
Report as a plain number; the unit M⁻¹ is understood.

# count of solved cases: 4
[
  {
    "Compound": "COc1cc(C(=O)Nc2cnc(N)nc2)cc(OC)c1OC",
    "Endpoint name": "Kapp Poly (dA-dT)2",
    "Obs value": "1.17e+06"
  },
  {
    "Compound": "COc1cc(CC(=O)Nc2cnc(N)nc2)cc(OC)c1OC",
    "Endpoint name": "Kapp Poly (dA-dT)2",
    "Obs value": 390000
  },
  {
    "Compound": "COc1cc(CCC(=O)Nc2ccc(N)cc2)cc(OC)c1OC",
    "Endpoint name": "Kapp Poly (dA-dT)2",
    "Obs value": 420000
  },
  {
    "Compound": "COc1cc(CC(=O)Nc2ccc(N)cc2)cc(OC)c1OC",
    "Endpoint name": "Kapp Poly (dA-dT)2",
    "Obs value": "1.4e+06"
  }
]

Request: Give Kapp Poly (dA-dT)2 (poly(dA-dT)2) of the following compound: COc1cc(C(=O)Nc2ccc(N)cc2)cc(OC)c1OC
Result: 790000

Request: Give Kapp Poly (dA-dT)2 (poly(dA-dT)2) of the following compound: Cn1cc(NC(=O)c2cc(NC(=O)CN=C(N)N)cn2C)cc1C(=O)NCCC(=N)N [NT, netropsin, reference compound]
Result: 8.75e+07

Request: Give Kapp Poly (dA-dT)2 (poly(dA-dT)2) of the following compound: COc1cc(CCC(=O)Nc2cnc(N)nc2)cc(OC)c1OC
Result: 360000

* * *

# System: poly(dG-dC)2 (DNA, polymer) GC
# Assay remarks: ethidium bromide displacement fluorescence
# Condition info: Na+ 1 M; 0.1 M Tris pH 8.0, room temperature; ethidium displaced; apparent
Quick list: Kapp per entry.

# count of solved cases: 6
[
  {
    "Compound": "COc1cc(CCC(=O)Nc2ccc(N)cc2)cc(OC)c1OC",
    "System tested": "poly(dG-dC)2 (DNA, polymer) GC",
    "Obs value": "1.1 ± 0.2 × 10^5 M^-1"
  },
  {
    "Compound": "COc1cc(CC(=O)Nc2cnc(N)nc2)cc(OC)c1OC",
    "System tested": "poly(dG-dC)2 (DNA, polymer) GC",
    "Obs value": "0.8 ± 0.2 × 10^5 M^-1"
  },
  {
    "Compound": "COc1cc(CCC(=O)Nc2cnc(N)nc2)cc(OC)c1OC",
    "System tested": "poly(dG-dC)2 (DNA, polymer) GC",
    "Obs value": "0.5 ± 0.2 × 10^5 M^-1"
  },
  {
    "Compound": "COc1cc(C(=O)Nc2cnc(N)nc2)cc(OC)c1OC",
    "System tested": "poly(dG-dC)2 (DNA, polymer) GC",
    "Obs value": "1.3 ± 0.2 × 10^5 M^-1"
  },
  {
    "Compound": "COc1cc(C(=O)Nc2ccc(N)cc2)cc(OC)c1OC",
    "System tested": "poly(dG-dC)2 (DNA, polymer) GC",
    "Obs value": "1.6 ± 0.2 × 10^5 M^-1"
  },
  {
    "Compound": "COc1cc(CC(=O)Nc2ccc(N)cc2)cc(OC)c1OC",
    "System tested": "poly(dG-dC)2 (DNA, polymer) GC",
    "Obs value": "3.0 ± 0.2 × 10^5 M^-1"
  }
]

We next turn to a different compound, shown below.
Request: Record request: Kapp value, item Cn1cc(NC(=O)c2cc(NC(=O)CN=C(N)N)cn2C)cc1C(=O)NCCC(=N)N [NT, netropsin, reference compound]
Result: 250000 M⁻¹
